Tested on: MS2 coat protein
Test: apparent KD of MS2 coat protein; designed switch direction (-1 OFF switch, 1 ON switch): -1; higher = weaker reporter binding
Conditions: input ligand: FMN 200 uM

input.sequence	result.units	apparent KD of MS2 coat protein
CAGCUGAAUGUGAGGAUAUGUCGAGCCUCGGCUCGAUAGAAGGCACAUGAGGAUCACCCAUGUCUCAACAGCUG [BmEx4/2-C2] (Eterna round: R97, puzzle: Brourd's mod of Exclusion 4)	µM	0.258
GCGUGGCGUAAGGAUAUCCAUACGGUAUAACCGGGAGAAGGUACGACAUGAGGAUCACCCAUGUGGCCUGGAAA [Sorimaat] (Eterna round: R97, puzzle: Exclusion 6)	µM	0.0644
CUGGGUCGUGUUAGGAUAUGCUCUAGAAAGUUAGGGUAGAAGGAACAUGAGGAUCACCCAUGUGACUUCACUAG [BmEX4 B.27] (Eterna round: R97, puzzle: Brourd's mod of Exclusion 4)	µM	0.0236

----------
Known apparent KD of MS2 coat protein of a selection of sequences
Tested on: MS2 coat protein
Experiment: apparent KD of MS2 coat protein; designed switch direction (-1 OFF switch, 1 ON switch): -1; higher = weaker reporter binding
Conditions: input ligand: none
readout.name: apparent KD of MS2 coat protein (nM)

input.sequence	readout.name	quantitative.result
UUAUUUAGGUAGGAUAUCGAUAUUAAUUAUUAUCGAGAAGGGUCUACAUGAGGAUCACCCAUGUUAGCAUGUUU [LRO-Excl6-09-Rocketman] (Eterna round: R97, puzzle: Exclusion 6)	apparent KD of MS2 coat protein	29.3
AAGUAACAUGAGGAUCACCCAUGUUAGGAUAUCUCGGCCGCGGCAUCGCCGCGAAACCAGAGAAGGAGCGGGUG [Erargeisar] (Eterna round: R97, puzzle: Exclusion 1)	apparent KD of MS2 coat protein	160
CGCGCCUUUGUCAGGAUAUUCGGGCGAGCCCGGCCGGAGAAGGGACUUGAGGAUCACCCAAGUGACGCGAAAAC [Beenusre] (Eterna round: R97, puzzle: Brourd's mod of Exclusion 4)	apparent KD of MS2 coat protein	20.6
UUGAGUCGGAAGGAUAUGCGAGCCGCCGGGUCAGCAGAAGGUCCGACAUGAGGAUCACCCAUGUUGGGCGAGGA [EX6 B.10] (Eterna round: R97, puzzle: Exclusion 6)	apparent KD of MS2 coat protein	25.2
ACUUACUGAGGAUAUACAUAGAUUUACAUGAGGAUCACCCAUGUUCCUCUAAGUAUAUAUGUAGAAGGCAGAAGGU [Mat - Exclusion 5 - JL Mod - D42] (Eterna round: R97, puzzle: Exclusion 5)	apparent KD of MS2 coat protein	214
AUAUUAAUAGUAAGGAUAUGCGUAUAUGUAGUUAUGCAGAAGGUACAUGAGGAUCACCCAUGUAUUAAUGUGUA [LRO-BmodExc4-04-Oppy's Opus] (Eterna round: R97, puzzle: Brourd's mod of Exclusion 4)	apparent KD of MS2 coat protein	16
UCUUACUGAGGAUAUACAUAGAUUUACAUGAGGAUCACCCAUGUUCCUCUAAGUAUAUAUGUAGAAGGCAGAAGAU [Mat - Exclusion 5 - JL Mod - D44] (Eterna round: R97, puzzle: Exclusion 5)	apparent KD of MS2 coat protein	235
AAUAUGUUAGGAUAUCUCAGCUGCCCGUAAACAGGCUAGCGAGAGAAGGGACAUGAGGAUCACCCAUGUCAUCC [Eternabot (Original) Solution 2] (Eterna round: R97, puzzle: Exclusion 4)	apparent KD of MS2 coat protein	15.6
GAAAACGCAGAGGAUAUUUCAGAUCAAAGCUGCAAAGAAGGCUGCACAUGAGGAUCACCCAUGUGGUCUUCAAU [Mat - Exclusion 6 - JL Mod - D8] (Eterna round: R97, puzzle: Exclusion 6)	apparent KD of MS2 coat protein	25.8
